system: Candida albicans A9540; experiment: animal or person; assay type: in vivo, male ICR mice infected with Candida albicans A9540; conditions: Candida albicans, A9540, 480 h; C. albicans, mice, 50 mg/kg iv, 20th day post-infection; read-out: S/T (No. of survivors/tested) (converted)
PROPERTY MEASURED: responders at 50 mg/kg (%)
Unit % implied. Number only.

Input: Any idea what responders at 50 mg/kg was measured for COc1cc(O)c2c(c1)C(=O)c1c(cc3c(c1O)-c1c(cc(C)c(C(=O)N[C@H](CO)C(=O)O)c1O)[C@H](O[C@@H]1O[C@H](C)[C@H](NC#N)[C@H](O[C@@H]4OC[C@@H](O)[C@H](O)[C@H]4O)[C@H]1O)[C@H]3O)C2=O ?
Output: 80

Input: Any idea what responders at 50 mg/kg was measured for CN[C@@H]1[C@H](O[C@@H]2OC[C@@H](O)[C@H](O)[C@H]2O)[C@@H](O)[C@H](O[C@H]2c3cc(C)c(C(=O)N[C@H](C)C(=O)O)c(O)c3-c3c(cc4c(c3O)C(=O)c3cc(OC)cc(O)c3C4=O)[C@@H]2O)O[C@@H]1C [Pradimicin A, reference compound] ?
Output: 100

* * *

system: Trichophyton mentagrophytes #4329; experiment: MIC, two-fold agar dilution, T. mentagrophytes #4329; format: cell-based; conditions: Trichophyton mentagrophytes #4329; YMA pH 7.0, 28° C., 60 hours; read-out: MIC
PROPERTY MEASURED: MIC (µg/mL)
Unit µg/mL implied. Number only.

Input: Any idea what MIC was measured for COc1cc(O)c2c(c1)C(=O)c1c(cc3c(c1O)-c1c(cc(C)c(C(=O)N[C@H](C)C(=O)O)c1O)[C@H](O[C@@H]1O[C@H](C)[C@H](NC#N)[C@H](O[C@@H]4OC[C@@H](O)[C@H](O)[C@H]4O)[C@H]1O)[C@H]3O)C2=O [KHM-2, 4'-N-Cyanopradimicin C] ?
Output: 12.5

Input: Any idea what MIC was measured for COc1cc(O)c2c(c1)C(=O)c1c(cc3c(c1O)-c1c(cc(C)c(C(=O)N[C@H](CO)C(=O)O)c1O)[C@H](O[C@@H]1O[C@H](C)[C@H](N(C)N=O)[C@H](O[C@@H]4OC[C@@H](O)[C@H](O)[C@H]4O)[C@H]1O)[C@H]3O)C2=O [KHM-5, 4'-N-Nitrosopradimicin FA-1] ?
Output: 6.3

Input: Any idea what MIC was measured for COc1cc(O)c2c(c1)C(=O)c1c(cc3c(c1O)-c1c(cc(C)c(C(=O)N[C@H](CO)C(=O)O)c1O)[C@H](O[C@@H]1O[C@H](C)[C@H](NC#N)[C@H](O[C@@H]4OC[C@@H](O)[C@H](O)[C@H]4O)[C@H]1O)[C@H]3O)C2=O [KHM-4, 4'-N-Cyanopradimicin FA2] ?
Output: 12.5

Input: Any idea what MIC was measured for COc1cc(O)c2c(c1)C(=O)c1c(cc3c(c1O)-c1c(cc(C)c(C(=O)N[C@H](C)C(=O)O)c1O)[C@H](O[C@@H]1O[C@H](C)[C@H](NC(=N)N)[C@H](O[C@@H]4OC[C@@H](O)[C@H](O)[C@H]4O)[C@H]1O)[C@H]3O)C2=O [KHM-8, 4'-Guanidinopradimicin C] ?
Output: 3.1
